Provide the recorded shrunken log2 fold change for the entries that follow.
# Test system: Escherichia coli TOP10
# Assay Name: shrunken log2 fold change of peptide-encoding DNA abundance (4.5 h post-induction vs induction); higher = less antimicrobial activity (less host growth inhibition)
# Experimental Conditions: time post-induction: 4.5 h; library: site-saturation at positions 5, 18, 19, 20
// keep it numeric: no unit symbol after the value

Please look up its shrunken log2 fold change: `RRIRGRPPRLPRPRPRPPLVPRP`
0.813

Please look up its shrunken log2 fold change: `RRIRQRPPRLPRPRPRPVRHPRP`
-0.0023

Please look up its shrunken log2 fold change: `RRIRTRPPRLPRPRPRPAHWPRP`
0.882

Please look up its shrunken log2 fold change: `RRIRLRPPRLPRPRPRPWAAPRP`
0.15

Please look up its shrunken log2 fold change: `RRIRPRPPRLPRPRPRPMYDPRP`
-0.0348

Please look up its shrunken log2 fold change: `RRIRIRPPRLPRPRPRPNEPPRP`
-0.0172

Please look up its shrunken log2 fold change: `RRIRIRPPRLPRPRPRPYCAPRP`
-0.978

Please look up its shrunken log2 fold change: `RRIRRRPPRLPRPRPRPLRHPRP`
0.558

====

# Test system: Escherichia coli TOP10
# Assay Name: shrunken log2 fold change of peptide-encoding DNA abundance (4.5 h post-induction vs induction); higher = less antimicrobial activity (less host growth inhibition)
# Experimental Conditions: time post-induction: 4.5 h; library: site-saturation at positions 5, 18, 19, 20
# class assignment by measured shrunken log2 fold change: lower level: < -0.1; middle level: ≥ -0.1 and < 0.2; upper level: ≥ 0.2

Each sequence maps to one class by shrunken log2 fold change. Which class for `RRIRCRPPRLPRPRPRPHYTPRP` ?
lower level

Each sequence maps to one class by shrunken log2 fold change. Which class for `RRIRHRPPRLPRPRPRPNIMPRP` ?
lower level

Each sequence maps to one class by shrunken log2 fold change. Which class for `RRIRPRPPRLPRPRPRPWRWPRP` ?
upper level

Each sequence maps to one class by shrunken log2 fold change. Which class for `RRIRCRPPRLPRPRPRPTTFPRP` ?
lower level

Each sequence maps to one class by shrunken log2 fold change. Which class for `RRIRRRPPRLPRPRPRPAAVPRP` ?
upper level

Each sequence maps to one class by shrunken log2 fold change. Which class for `RRIRKRPPRLPRPRPRPIVAPRP` ?
upper level

Each sequence maps to one class by shrunken log2 fold change. Which class for `RRIRIRPPRLPRPRPRPYWAPRP` ?
lower level

Each sequence maps to one class by shrunken log2 fold change. Which class for `RRIRLRPPRLPRPRPRPKMWPRP` ?
upper level

Each sequence maps to one class by shrunken log2 fold change. Which class for `RRIRPRPPRLPRPRPRPLLFPRP` ?
middle level

Each sequence maps to one class by shrunken log2 fold change. Which class for `RRIRRRPPRLPRPRPRPKSRPRP` ?
middle level

Each sequence maps to one class by shrunken log2 fold change. Which class for `RRIRVRPPRLPRPRPRPRMMPRP` ?
middle level

Each sequence maps to one class by shrunken log2 fold change. Which class for `RRIRTRPPRLPRPRPRPIALPRP` ?
lower level

Each sequence maps to one class by shrunken log2 fold change. Which class for `RRIRCRPPRLPRPRPRPLKVPRP` ?
lower level

Each sequence maps to one class by shrunken log2 fold change. Which class for `RRIRKRPPRLPRPRPRPDVRPRP` ?
middle level

Each sequence maps to one class by shrunken log2 fold change. Which class for `RRIRWRPPRLPRPRPRPVLWPRP` ?
upper level

Each sequence maps to one class by shrunken log2 fold change. Which class for `RRIRARPPRLPRPRPRPAANPRP` ?
upper level

Each sequence maps to one class by shrunken log2 fold change. Which class for `RRIRPRPPRLPRPRPRPTWSPRP` ?
upper level

Each sequence maps to one class by shrunken log2 fold change. Which class for `RRIRLRPPRLPRPRPRPLAIPRP` ?
upper level

Each sequence maps to one class by shrunken log2 fold change. Which class for `RRIRWRPPRLPRPRPRPGDVPRP` ?
middle level

Each sequence maps to one class by shrunken log2 fold change. Which class for `RRIRCRPPRLPRPRPRPCFFPRP` ?
upper level

Each sequence maps to one class by shrunken log2 fold change. Which class for `RRIRTRPPRLPRPRPRPPFKPRP` ?
upper level

Each sequence maps to one class by shrunken log2 fold change. Which class for `RRIRRRPPRLPRPRPRPQHPPRP` ?
upper level

Each sequence maps to one class by shrunken log2 fold change. Which class for `RRIRARPPRLPRPRPRPYNPPRP` ?
lower level

Each sequence maps to one class by shrunken log2 fold change. Which class for `RRIRSRPPRLPRPRPRPTMWPRP` ?
upper level

Each sequence maps to one class by shrunken log2 fold change. Which class for `RRIRARPPRLPRPRPRPYNWPRP` ?
lower level

Each sequence maps to one class by shrunken log2 fold change. Which class for `RRIRMRPPRLPRPRPRPPHDPRP` ?
upper level

Each sequence maps to one class by shrunken log2 fold change. Which class for `RRIRMRPPRLPRPRPRPVYAPRP` ?
upper level

Each sequence maps to one class by shrunken log2 fold change. Which class for `RRIRHRPPRLPRPRPRPEICPRP` ?
middle level

Each sequence maps to one class by shrunken log2 fold change. Which class for `RRIRARPPRLPRPRPRPPMNPRP` ?
middle level

Each sequence maps to one class by shrunken log2 fold change. Which class for `RRIRSRPPRLPRPRPRPVQKPRP` ?
middle level

Each sequence maps to one class by shrunken log2 fold change. Which class for `RRIRMRPPRLPRPRPRPERHPRP` ?
upper level

Each sequence maps to one class by shrunken log2 fold change. Which class for `RRIRLRPPRLPRPRPRPIYSPRP` ?
middle level

Each sequence maps to one class by shrunken log2 fold change. Which class for `RRIRIRPPRLPRPRPRPGVDPRP` ?
middle level

Each sequence maps to one class by shrunken log2 fold change. Which class for `RRIRSRPPRLPRPRPRPPDKPRP` ?
middle level

Each sequence maps to one class by shrunken log2 fold change. Which class for `RRIRSRPPRLPRPRPRPIVYPRP` ?
lower level

Each sequence maps to one class by shrunken log2 fold change. Which class for `RRIRGRPPRLPRPRPRPQYLPRP` ?
middle level

Each sequence maps to one class by shrunken log2 fold change. Which class for `RRIRHRPPRLPRPRPRPLQEPRP` ?
lower level

Each sequence maps to one class by shrunken log2 fold change. Which class for `RRIRERPPRLPRPRPRPDTRPRP` ?
middle level

Each sequence maps to one class by shrunken log2 fold change. Which class for `RRIRVRPPRLPRPRPRPLYPPRP` ?
lower level

Each sequence maps to one class by shrunken log2 fold change. Which class for `RRIRIRPPRLPRPRPRPWCNPRP` ?
lower level

Each sequence maps to one class by shrunken log2 fold change. Which class for `RRIRIRPPRLPRPRPRPQFQPRP` ?
lower level

Each sequence maps to one class by shrunken log2 fold change. Which class for `RRIRKRPPRLPRPRPRPIVFPRP` ?
middle level

Each sequence maps to one class by shrunken log2 fold change. Which class for `RRIRERPPRLPRPRPRPHTFPRP` ?
lower level

Each sequence maps to one class by shrunken log2 fold change. Which class for `RRIRYRPPRLPRPRPRPDRVPRP` ?
lower level

Each sequence maps to one class by shrunken log2 fold change. Which class for `RRIRFRPPRLPRPRPRPNDHPRP` ?
lower level

Each sequence maps to one class by shrunken log2 fold change. Which class for `RRIRTRPPRLPRPRPRPLDKPRP` ?
lower level

Each sequence maps to one class by shrunken log2 fold change. Which class for `RRIRRRPPRLPRPRPRPFHLPRP` ?
lower level

Each sequence maps to one class by shrunken log2 fold change. Which class for `RRIRARPPRLPRPRPRPAVTPRP` ?
upper level

Each sequence maps to one class by shrunken log2 fold change. Which class for `RRIRKRPPRLPRPRPRPKTHPRP` ?
upper level

Each sequence maps to one class by shrunken log2 fold change. Which class for `RRIRVRPPRLPRPRPRPKTEPRP` ?
middle level

Each sequence maps to one class by shrunken log2 fold change. Which class for `RRIRRRPPRLPRPRPRPRNWPRP` ?
upper level

Each sequence maps to one class by shrunken log2 fold change. Which class for `RRIRFRPPRLPRPRPRPFFFPRP` ?
middle level

Each sequence maps to one class by shrunken log2 fold change. Which class for `RRIRKRPPRLPRPRPRPECQPRP` ?
upper level

====

# Tested on: Escherichia coli TOP10;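 also: peptides expressed intracellularly from a pBAD plasmid library in pooled LB shake-flask culture, induced with 0.3% L-arabinose, DNA abundance read by NGS, three biological replicates, DESeq2 with apeglm shrinkage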
# Assay Name: shrunken log2 fold change of peptide-encoding DNA abundance (4.5 h post-induction vs induction); higher = less antimicrobial activity (less host growth inhibition)
# Experimental Conditions: time post-induction: 4.5 h; library: site-saturation at positions 5, 18, 19, 20
Provide the recorded shrunken log2 fold change for the entries that follow.
// keep it numeric: no unit symbol after the value

Please look up its shrunken log2 fold change: `RRIRPRPPRLPRPRPRPHGTPRP`
-0.0314

Please look up its shrunken log2 fold change: `RRIRRRPPRLPRPRPRPYDWPRP`
-0.0665

Please look up its shrunken log2 fold change: `RRIRQRPPRLPRPRPRPGFDPRP`
2.69

Please look up its shrunken log2 fold change: `RRIRHRPPRLPRPRPRPATHPRP`
-0.105

Please look up its shrunken log2 fold change: `RRIRERPPRLPRPRPRPSGIPRP`
-0.272

Please look up its shrunken log2 fold change: `RRIRPRPPRLPRPRPRPWDLPRP`
-0.0362

Please look up its shrunken log2 fold change: `RRIRMRPPRLPRPRPRPFSGPRP`
-0.0134

Please look up its shrunken log2 fold change: `RRIRGRPPRLPRPRPRPCYCPRP`
-0.164

Please look up its shrunken log2 fold change: `RRIRERPPRLPRPRPRPGRIPRP`
-0.0858

Please look up its shrunken log2 fold change: `RRIRERPPRLPRPRPRPYNYPRP`
-0.519

Please look up its shrunken log2 fold change: `RRIRHRPPRLPRPRPRPERYPRP`
-0.0389

Please look up its shrunken log2 fold change: `RRIRRRPPRLPRPRPRPRSPPRP`
0.49

Please look up its shrunken log2 fold change: `RRIRQRPPRLPRPRPRPCTPPRP`
-0.141

Please look up its shrunken log2 fold change: `RRIRERPPRLPRPRPRPRIDPRP`
-0.0634

Please look up its shrunken log2 fold change: `RRIRSRPPRLPRPRPRPKNPPRP`
-0.11

Please look up its shrunken log2 fold change: `RRIRGRPPRLPRPRPRPSDSPRP`
-0.0596

Please look up its shrunken log2 fold change: `RRIRGRPPRLPRPRPRPDFWPRP`
0.593

Please look up its shrunken log2 fold change: `RRIRERPPRLPRPRPRPKDQPRP`
0.188

Please look up its shrunken log2 fold change: `RRIRMRPPRLPRPRPRPFMPPRP`
-0.127

Please look up its shrunken log2 fold change: `RRIRFRPPRLPRPRPRPEMEPRP`
0.252

Please look up its shrunken log2 fold change: `RRIRNRPPRLPRPRPRPNPLPRP`
0.0887

Please look up its shrunken log2 fold change: `RRIRKRPPRLPRPRPRPVKWPRP`
0.122

Please look up its shrunken log2 fold change: `RRIRPRPPRLPRPRPRPHGAPRP`
0.641

Please look up its shrunken log2 fold change: `RRIRWRPPRLPRPRPRPDMGPRP`
0.454

Please look up its shrunken log2 fold change: `RRIRQRPPRLPRPRPRPQINPRP`
-0.285

Please look up its shrunken log2 fold change: `RRIRARPPRLPRPRPRPMICPRP`
0.0985

meta.source: the supplement of paper PMC9112550
